Reference for the values: paper PMC2860736

# Measured target: ovine COX-1 (Ovis aries)
# Sequence (P05979 25-600): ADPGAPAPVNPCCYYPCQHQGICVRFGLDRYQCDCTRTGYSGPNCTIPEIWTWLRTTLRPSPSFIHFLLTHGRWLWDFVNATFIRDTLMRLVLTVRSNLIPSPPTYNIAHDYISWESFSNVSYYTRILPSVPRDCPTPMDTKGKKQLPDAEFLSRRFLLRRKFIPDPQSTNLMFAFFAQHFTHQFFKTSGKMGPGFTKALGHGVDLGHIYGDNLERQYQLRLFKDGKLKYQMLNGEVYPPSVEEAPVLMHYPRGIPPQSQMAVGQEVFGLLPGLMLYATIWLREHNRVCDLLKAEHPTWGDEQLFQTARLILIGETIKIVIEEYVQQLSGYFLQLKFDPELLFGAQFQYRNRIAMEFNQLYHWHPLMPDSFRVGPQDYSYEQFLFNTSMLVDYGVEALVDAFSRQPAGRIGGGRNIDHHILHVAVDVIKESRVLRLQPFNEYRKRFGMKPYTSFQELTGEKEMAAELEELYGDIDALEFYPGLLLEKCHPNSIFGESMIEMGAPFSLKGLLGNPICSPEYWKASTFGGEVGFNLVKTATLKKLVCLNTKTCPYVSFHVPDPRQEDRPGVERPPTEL
# Test: COX functional assay
# Type: biochemical
# Experimental parameters: compound 10 μM
I would appreciate it if you labelled entries TRUE when Inhibition of COX-1 (%) Mean ± std. dev. (N=3) is 40% or higher, otherwise FALSE.

Below are worked cases with known answers.
COc1cc(/C=C/C(=O)OCCc2ccccc2)ccc1O [Phenethyl trans-ferulate]    TRUE
CCC/C=C1\OC(=O)C2=C1CC[C@H]1[C@H]3C=C4C(=O)O/C(=C\CCC)[C@@]4(CC3)[C@@H]21 [Senkyunolide O]    FALSE
C=C(C)[C@@H]1CC[C@]2(C)[C@H](CC=C3[C@@H]4[C@@H](C)[C@H](C)CC[C@]4(C)CC[C@]32C)[C@@]1(C)CCC(=O)O [Roburic acid]    FALSE
CC(=O)O[C@@H]1CC[C@@]2(C)[C@@H](CC[C@]3(C)[C@@H]2CC=C2[C@@H]4[C@@H](C)[C@H](C)CC[C@]4(C)CC[C@]23C)[C@@]1(C)C(=O)O [Acetyl-β-boswellic acid]    FALSE

Quick check, Inhibition of COX-1 (%) Mean ± std. dev. (N=3) >= 40%? CC(=O)O[C@@H]1CC[C@@]2(C)[C@@H](CC[C@]3(C)[C@@H]2CC=C2[C@@H]4CC(C)(C)CC[C@]4(C)CC[C@]23C)[C@@]1(C)C(=O)O [Acetyl-α-boswellic acid]
TRUE
